Target: CDK13/Cyclin K (Homo sapiens)
Sequence (O75909 whole entry): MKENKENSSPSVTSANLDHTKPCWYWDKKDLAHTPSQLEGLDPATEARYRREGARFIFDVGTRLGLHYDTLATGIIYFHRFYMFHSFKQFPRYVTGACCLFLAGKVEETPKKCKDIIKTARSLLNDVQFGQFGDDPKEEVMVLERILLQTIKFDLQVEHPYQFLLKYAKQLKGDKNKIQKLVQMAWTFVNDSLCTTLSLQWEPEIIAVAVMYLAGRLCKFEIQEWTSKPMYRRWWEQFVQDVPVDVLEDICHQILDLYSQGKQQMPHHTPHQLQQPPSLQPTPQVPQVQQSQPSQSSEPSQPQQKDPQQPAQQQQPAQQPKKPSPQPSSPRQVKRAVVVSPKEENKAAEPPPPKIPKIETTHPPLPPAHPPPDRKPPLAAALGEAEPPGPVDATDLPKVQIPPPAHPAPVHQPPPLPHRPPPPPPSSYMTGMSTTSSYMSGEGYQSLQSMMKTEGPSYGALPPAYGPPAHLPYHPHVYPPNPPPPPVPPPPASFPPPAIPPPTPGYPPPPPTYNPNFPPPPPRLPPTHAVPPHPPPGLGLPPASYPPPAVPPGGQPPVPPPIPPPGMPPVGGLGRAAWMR
Sequence (Q14004 other isoform, or with tags, fused parts or gaps): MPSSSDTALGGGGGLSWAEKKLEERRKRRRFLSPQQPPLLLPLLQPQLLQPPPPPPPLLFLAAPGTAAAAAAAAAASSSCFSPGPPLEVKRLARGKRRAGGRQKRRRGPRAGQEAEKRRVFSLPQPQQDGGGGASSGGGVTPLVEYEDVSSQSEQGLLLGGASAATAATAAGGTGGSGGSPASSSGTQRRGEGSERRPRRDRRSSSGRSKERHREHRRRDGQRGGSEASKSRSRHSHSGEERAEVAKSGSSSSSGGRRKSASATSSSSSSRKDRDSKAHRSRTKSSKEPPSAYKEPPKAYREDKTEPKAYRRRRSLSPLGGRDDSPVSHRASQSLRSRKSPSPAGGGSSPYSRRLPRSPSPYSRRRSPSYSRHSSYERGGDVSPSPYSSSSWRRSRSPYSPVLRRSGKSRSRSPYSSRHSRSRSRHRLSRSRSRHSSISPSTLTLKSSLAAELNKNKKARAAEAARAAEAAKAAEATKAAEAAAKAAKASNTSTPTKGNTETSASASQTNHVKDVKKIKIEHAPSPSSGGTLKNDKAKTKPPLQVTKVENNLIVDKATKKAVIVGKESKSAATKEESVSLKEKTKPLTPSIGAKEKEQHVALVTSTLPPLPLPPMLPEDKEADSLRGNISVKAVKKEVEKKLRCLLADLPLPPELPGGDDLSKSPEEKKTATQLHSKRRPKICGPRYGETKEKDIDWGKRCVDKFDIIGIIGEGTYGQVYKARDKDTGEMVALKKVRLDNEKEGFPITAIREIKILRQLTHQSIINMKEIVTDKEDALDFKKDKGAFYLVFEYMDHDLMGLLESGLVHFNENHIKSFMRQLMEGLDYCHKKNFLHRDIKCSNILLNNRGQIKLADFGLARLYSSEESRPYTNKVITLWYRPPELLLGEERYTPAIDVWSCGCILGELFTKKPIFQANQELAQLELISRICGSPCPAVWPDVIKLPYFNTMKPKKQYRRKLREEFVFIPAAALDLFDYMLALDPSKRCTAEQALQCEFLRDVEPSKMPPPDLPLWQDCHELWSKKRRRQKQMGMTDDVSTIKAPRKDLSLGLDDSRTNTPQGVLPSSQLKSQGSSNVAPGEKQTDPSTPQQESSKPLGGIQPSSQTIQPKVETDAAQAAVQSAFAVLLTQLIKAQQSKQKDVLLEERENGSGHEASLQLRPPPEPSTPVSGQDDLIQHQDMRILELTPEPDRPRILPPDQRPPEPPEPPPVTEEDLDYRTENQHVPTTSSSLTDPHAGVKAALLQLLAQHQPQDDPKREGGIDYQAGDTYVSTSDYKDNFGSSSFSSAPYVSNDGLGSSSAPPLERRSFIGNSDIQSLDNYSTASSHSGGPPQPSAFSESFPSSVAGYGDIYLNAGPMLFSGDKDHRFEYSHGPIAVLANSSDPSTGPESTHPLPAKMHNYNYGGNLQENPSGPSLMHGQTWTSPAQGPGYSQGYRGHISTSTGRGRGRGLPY
Test: NanoBRET live-cell target engagement, CDK13-NanoLuc/Cyclin K in HEK-293
Type: binding
Settings: CDK13/K; 10µM; average of replicates
Experimental readout: Inhibition at 10µM (%) Average

>>> recorded_result("CCC(CO)Nc1nc(Nc2cccc(-c3ccccn3)c2)c2ncn(C(C)C)c2n1.Cl.O [(R) - DRF053]")
-6.9
>>> recorded_result("CNC1CCN(C(=O)c2ccc(Nc3ncc(F)c(-c4cnc(C)n4C(C)C)n3)cc2)C1 (stereo not shown) [AZD5597]")
50.0
>>> recorded_result("CC(C)c1cnn2c(NCc3ccccc3)cc(N[C@@H](CO)[C@H](O)CO)nc12 [BS-194]")
42.3
>>> recorded_result("O=C(Nc1c[nH]nc1-c1ccccn1)c1nn(C2CCNCC2)cc1Cl [BDP5290]")
-3.3
